- ASSAYED_SYSTEM: h-GABAA α1β2γ1 (Homo sapiens, UniProt P14867+Q8N1C3)
- PROTOCOL_TEXT: Radioligand binding assay, [3H]RO7239181 competition, HEK293F membranes
Entries and their pKi values follow.
Keep in mind that pKi stands for -log10 of concentration in molar terms.

// solved cases for pKi follow
[[record]]
compound = "Fc1cccc(F)c1C1=NCc2nnc(-c3cccnn3)n2-c2ccc(Cl)c(Cl)c21"
test_value = 8.28

[[record]]
compound = "Cc1nnc2n1-c1ccc(Cl)c(Cl)c1C(c1ncccc1F)=NC2"
test_value = 6.75

[[record]]
compound = "O=c1[nH]nc2n1-c1ccc(Br)c(Cl)c1C(c1c(F)cccc1F)=NC2"
test_value = 8.21

[[record]]
compound = "COc1ccc2c(c1Cl)C(c1c(F)cccc1F)=NCc1nnc(-c3ccncn3)n1-2"
test_value = 6.92

[[record]]
compound = "Fc1cccnc1C1=NCc2nnc(-c3ccncn3)n2-c2ccc(C(F)(F)F)c(Cl)c21"
test_value = 6.86

[[record]]
compound = "Fc1cccnc1C1=NCc2nnc(-c3cccnn3)n2-c2ccc(C(F)(F)F)c(Cl)c21"
test_value = 6.56

[[record]]
compound = "Cc1ccc2c(c1Cl)C(c1c(F)cccc1F)=NCc1nnc(C)n1-2"
test_value = 7.43

[[record]]
compound = "Fc1ccccc1C1=NCc2nnc(-c3cccnn3)n2-c2ccc(Cl)c(Cl)c21"
test_value = 7.59

[[record]]
compound = "O=c1[nH]nc2n1-c1ccc(Cl)c(Cl)c1C(c1c(F)cccc1F)=NC2"
test_value = 8.14

[[record]]
compound = "Fc1cccnc1C1=NCc2nncn2-c2ccc(Cl)c(Cl)c21"
test_value = 6.79


Query string: May I ask what pKi has been recorded for Cc1ccc2c(c1Cl)C(c1c(F)cccc1F)=NCc1nnc(-c3ccncn3)n1-2 ?
Result string: 7.39

Where do the numbers come from? From patent US20230141603A1.
